Target: FGFR2 (Homo sapiens)
Construct: made in house; host or cells: E. coli (BL21-derived), T7 phage
Sequence (P21802 22-821): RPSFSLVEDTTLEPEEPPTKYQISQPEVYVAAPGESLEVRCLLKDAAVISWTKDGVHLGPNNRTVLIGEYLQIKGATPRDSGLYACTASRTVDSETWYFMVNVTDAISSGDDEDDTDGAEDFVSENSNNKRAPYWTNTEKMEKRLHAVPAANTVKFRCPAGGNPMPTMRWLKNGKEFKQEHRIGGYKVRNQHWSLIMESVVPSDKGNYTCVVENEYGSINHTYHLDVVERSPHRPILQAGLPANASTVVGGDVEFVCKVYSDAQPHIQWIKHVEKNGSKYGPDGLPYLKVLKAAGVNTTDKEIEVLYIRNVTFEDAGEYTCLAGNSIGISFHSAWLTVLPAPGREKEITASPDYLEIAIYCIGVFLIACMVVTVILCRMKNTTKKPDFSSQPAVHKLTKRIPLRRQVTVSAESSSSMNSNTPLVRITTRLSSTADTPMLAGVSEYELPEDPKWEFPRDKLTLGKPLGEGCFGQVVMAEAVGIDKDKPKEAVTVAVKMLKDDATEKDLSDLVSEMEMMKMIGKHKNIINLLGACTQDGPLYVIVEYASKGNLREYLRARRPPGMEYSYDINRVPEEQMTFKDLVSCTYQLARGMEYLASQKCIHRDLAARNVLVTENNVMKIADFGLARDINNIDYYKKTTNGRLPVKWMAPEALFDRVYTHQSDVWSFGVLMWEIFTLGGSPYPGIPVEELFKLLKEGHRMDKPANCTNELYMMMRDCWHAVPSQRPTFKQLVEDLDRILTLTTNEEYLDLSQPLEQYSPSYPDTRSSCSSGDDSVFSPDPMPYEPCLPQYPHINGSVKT
Test: Kinase binding assay (kinase-tagged T7 phage, affinity beads, qPCR), Kd
Conditions: read-out: FGFR2 (Kd nM)
Quick reference for Kd among some compounds

>  <smiles.string>
C[C@@H](Oc1ccc2[nH]nc(-c3cnc(N4CC(C)(NCC5CC5)C4)c(C#N)c3)c2c1F)c1c(Cl)cncc1Cl

>  <Kd>
> 1000 nM

$$$$
>  <smiles.string>
COc1cc2[nH]nc(-c3cnc(N4CC(C)(NCC(C)(C)O)C4)c(F)c3)c2cc1O[C@H](C)c1c(Cl)cncc1Cl

>  <Kd>
1 to 50 nM

$$$$
>  <smiles.string>
COc1cc2[nH]nc(-c3cnc(N4CC(C)(NCC(C)C)C4)c(C#N)c3)c2cc1O[C@H](C)c1c(Cl)cncc1Cl

>  <Kd>
1 to 50 nM

$$$$
>  <smiles.string>
C[C@@H](Oc1ccc2[nH]nc(-c3cnc(N4CC(C)(NCC5CC5)C4)c(F)c3)c2c1F)c1c(Cl)cncc1Cl

>  <Kd>
> 1000 nM

$$$$
